system: S1507-2; assay: drug sensitivity score (DSS, CellTiter-Glo viability, 72 h) (DSS (dimensionless)); higher = more sensitive; extreme values may be limits of the assay
# drug sensitivity score per entry
measure: drug sensitivity score

- CNNCc1ccc(C(=O)NC(C)C)cc1 [Procarbazine] (max concentration tested 10000 nM): 0
- CC[C@]1(O)C[C@H]2CN(CCc3c([nH]c4ccccc34)[C@@](C(=O)OC)(c3cc4c(cc3OC)N(C=O)[C@H]3[C@@](O)(C(=O)OC)[C@H](OC(C)=O)[C@]5(CC)C=CCN6CC[C@]43[C@@H]65)C2)C1 [Vincristine] (max concentration tested 1000 nM): 21.1
- N[C@@H](CSC(c1ccccc1)(c1ccccc1)c1ccccc1)C(=O)O [S-trityl-L-cysteine] (max concentration tested 40000 nM): 0
- Cn1cnc(-c2cc3nccc(Oc4ccc(NC(=S)NC(=O)Cc5ccccc5)cc4F)c3s2)c1 [MGCD-265] (max concentration tested 10000 nM): 4.92
- COc1cccc2c1C(=O)c1c(O)c3c(c(O)c1C2=O)C[C@@](O)(C(C)=O)C[C@@H]3O[C@H]1C[C@H](N)[C@H](O)[C@H](C)O1 [Daunorubicin] (max concentration tested 1000 nM): 9.24
- C[C@@]1(C(=O)Nc2ccc(F)nc2)CCCN1c1nc(Nc2cc(C3CC3)n[nH]2)c2cccn2n1 (max concentration tested 10000 nM): 14.5
- CC1=NN(c2ccc(C(=O)O)cc2)C(=O)C1=Cc1ccc(-c2cc(C)c(C)cc2[N+](=O)[O-])o1 [C646] (max concentration tested 25000 nM): 0.311
- Cn1c(Nc2ccc(C(F)(F)F)cc2)nc2cc(Oc3ccnc(-c4ncc(C(F)(F)F)[nH]4)c3)ccc21 [RAF265] (max concentration tested 1000 nM): 4.23
- Cc1ccc(NC(=O)c2ccc(CN3CCN(C)CC3)cc2)cc1Nc1nccc(-c2cccnc2)n1 [Imatinib] (max concentration tested 10000 nM): 3.9
- N#Cc1ccc(C(c2ccc(C#N)cc2)n2cncn2)cc1 [Letrozole] (max concentration tested 10000 nM): 0
- Cc1ccc(-n2nc(C(C)(C)C)cc2NC(=O)Nc2ccc(OCCN3CCOCC3)c3ccccc23)cc1 [Doramapimod] (max concentration tested 10000 nM): 0
- O=NN(CCCl)C(=O)NCCCl [Carmustine] (max concentration tested 10000 nM): 0
- C=CCc1cccc(/C=N/NC(=O)CN2CCN(Cc3ccccc3)CC2)c1O [PAC-1] (max concentration tested 10000 nM): 2.43
- Nc1nc(Cl)nc2c1ncn2[C@@H]1O[C@H](CO)[C@@H](O)[C@@H]1F [Clofarabine] (max concentration tested 10000 nM): 11
- COc1cc2c(NC3CCN(C(C)C)CC3)nc(C3CCCCC3)nc2cc1OCCCN1CCCC1 [UNC0638] (max concentration tested 10000 nM): 8.72
- CS(=O)(=O)OCCCCOS(C)(=O)=O [Busulfan] (max concentration tested 100000 nM): 0
- FC(F)c1nc2ccccc2n1-c1nc(N2CCOCC2)nc(N2CCOCC2)n1 [ZSTK474] (max concentration tested 10000 nM): 13.5
- O=c1[nH]cc(F)c(=O)[nH]1 [Fluorouracil] (max concentration tested 10000 nM): 0.493
- O=C1NC(=O)[C@@H](c2cn3c4c(cccc24)CCC3)[C@@H]1c1c[nH]c2ccccc12 [Tivantinib] (max concentration tested 1000 nM): 5.33
- Cc1c(C(=O)Nc2ccc(N3C[C@@H](C)O[C@@H](C)C3)nc2)cccc1-c1ccc(OC(F)(F)F)cc1 [Erismodegib] (max concentration tested 10000 nM): 0.871
- Nc1ncnc2c1nc(Cl)n2[C@@H]1O[C@H](CO)[C@@H](O)[C@H]1O [8-chloro-adenosine] (max concentration tested 50000 nM): 12.4
- CCCCCCCCc1ccc(CCC(N)(CO)CO)cc1 [Fingolimod] (max concentration tested 10000 nM): 7.98
- O=C(Nc1cccnc1)N1CCC(Cc2cccc(Oc3ccc(C(F)(F)F)cn3)c2)CC1 [PF-3845] (max concentration tested 10000 nM): 0
- CN1CCN(c2nc(C3=C(c4c[nH]c5ccccc45)C(=O)NC3=O)c3ccccc3n2)CC1 [Sotrastaurin] (max concentration tested 10000 nM): 0.00765
